B1: glmS ribozyme (parent)
chain: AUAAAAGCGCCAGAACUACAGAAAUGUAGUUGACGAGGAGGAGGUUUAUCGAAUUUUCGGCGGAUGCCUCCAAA

# Variants of: B1
# ASSAY DETAILS: self-cleavage kobs at 2500 uM GlcN6P; higher = faster cleavage; RNA array
# STUDY CONDITIONS: with glucosamine-6-phosphate
Variants at the floor of the assay were thinned out.
OBSERVATION TYPE: self-cleavage kobs at 2500 uM GlcN6P

Input: Given the entry G7A A64C C67G U69G , report its measured self-cleavage kobs at 2500 uM GlcN6P.
Output: < 1e-05 s⁻¹

Input: What does the data say about its self-cleavage kobs at 2500 uM GlcN6P? Entry: C16G U30C A33C C68U
Output: < 1e-05 s⁻¹

Input: Entry A15C U31G G59C : reported self-cleavage kobs at 2500 uM GlcN6P = ?
Output: < 1e-05 s⁻¹
